Exercise: for every item that follows, state its recorded IC50.
target: UniProt P22001; experiment: Whole-cell patch-clamp assay for inhibitory activity against Kv1.3 (peak current); details: HEK293 cells stably expressing Kv1.3, patch-clamp
Sequence (P22001 whole entry): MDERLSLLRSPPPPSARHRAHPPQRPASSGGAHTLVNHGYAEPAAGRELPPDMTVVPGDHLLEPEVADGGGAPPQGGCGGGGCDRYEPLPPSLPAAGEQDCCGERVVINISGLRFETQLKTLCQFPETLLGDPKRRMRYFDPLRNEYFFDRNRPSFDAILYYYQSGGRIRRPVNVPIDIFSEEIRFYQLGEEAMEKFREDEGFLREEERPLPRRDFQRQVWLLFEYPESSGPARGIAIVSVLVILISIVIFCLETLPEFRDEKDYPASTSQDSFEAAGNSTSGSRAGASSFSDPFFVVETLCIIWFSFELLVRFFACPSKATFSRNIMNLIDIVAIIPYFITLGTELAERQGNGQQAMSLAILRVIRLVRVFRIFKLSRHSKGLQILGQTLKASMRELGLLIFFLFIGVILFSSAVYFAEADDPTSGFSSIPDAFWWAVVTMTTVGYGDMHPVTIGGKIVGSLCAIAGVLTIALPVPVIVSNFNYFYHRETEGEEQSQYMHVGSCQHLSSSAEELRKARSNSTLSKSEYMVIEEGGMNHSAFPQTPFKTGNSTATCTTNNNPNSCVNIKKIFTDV
Form entry: value (nM) — number only.

*Q* Determine from records and report IC50 for `CC(C)N1CCC(N2CC[C@@H](c3nnc4n3C[C@H](c3c(O)ccc(Cl)c3Cl)C4)C2)CC1`
*A* 5.01

*Q* Determine from records and report IC50 for `CC(C)N1CCN(C(=O)c2cnc3n2C[C@H](c2c(O)ccc(Cl)c2Cl)C3)CC1`
*A* 9.68

*Q* Determine from records and report IC50 for `COc1cccc(-c2nnc3n2C[C@H](c2c(O)ccc(Cl)c2Cl)C3)c1`
*A* 27.9

*Q* Determine from records and report IC50 for O=c1n(C2CCNCC2)nc2n1CC(c1c(O)ccc(Cl)c1Cl)C2 (stereo not drawn)
*A* 5.93

*Q* Determine from records and report IC50 for `Cn1cc(-c2nnc3n2C[C@H](c2c(O)ccc(Cl)c2Cl)C3)cn1`
*A* 10.6

*Q* Determine from records and report IC50 for Oc1ccc(Cl)c(Cl)c1C1Cc2nnc(CC(F)(F)F)n2C1 (stereo not drawn)
*A* 26.8

*Q* Determine from records and report IC50 for Oc1ccc(Cl)c(Cl)c1C1Cc2nnc(C3CCN(C4CC4)CC3)n2C1 (stereo not drawn)
*A* 9.24

*Q* Determine from records and report IC50 for O=C1CC(c2nnc3n2C[C@H](c2c(O)ccc(Cl)c2Cl)C3)CCN1 (single isomer, unassigned) [Example 57]
*A* 11.4

*Q* Determine from records and report IC50 for `Oc1ccc(Cl)c(Cl)c1[C@@H]1Cc2nnc([C@@H]3CCOC3)n2C1`
*A* 7.7

*Q* Determine from records and report IC50 for `CCc1nnc2n1C[C@H](c1c(O)ccc(Cl)c1Cl)C2`
*A* 9.75

*Q* Determine from records and report IC50 for `CC(=O)N1CCC(c2nnc3n2C[C@H](c2c(O)ccc(Cl)c2Cl)C3)CC1`
*A* 12.7

*Q* Determine from records and report IC50 for CC1(C)CC(c2nnc3n2CC(c2c(O)ccc(Cl)c2Cl)C3)CCN1 (stereo not drawn)
*A* 8.25

*Q* Determine from records and report IC50 for CC(C)N1CCN(c2cnc3n2CC(c2c(O)ccc(Cl)c2Cl)C3)CC1 (stereo not drawn)
*A* 9.89

*Q* Determine from records and report IC50 for O=C(c1nnc2n1CC(c1c(O)ccc(Cl)c1Cl)C2)N1CCC(O)C1 (stereo not drawn)
*A* 30.9

*Q* Determine from records and report IC50 for `Oc1ccc(Cl)c(Cl)c1[C@@H]1Cc2nnc(C3CCCC3)n2C1`
*A* 10.2

*Q* Determine from records and report IC50 for Oc1ccc(Cl)c(Cl)c1C1Cc2nnc(C(F)F)n2C1 (stereo not drawn)
*A* 11.1

*Q* Determine from records and report IC50 for `Oc1ccc(Cl)c(Cl)c1[C@@H]1Cc2nnc(C(F)(F)F)n2C1`
*A* 25

*Q* Determine from records and report IC50 for O=C(c1nnc2n1CC(c1c(O)ccc(Cl)c1Cl)C2)N1CCOCC1 (stereo not drawn)
*A* 48.6

###

biological target: UniProtKB P22001; assay: Whole-cell patch-clamp assay for inhibitory activity against Kv1.3 (peak current); settings: HEK293 cells stably expressing Kv1.3, patch-clamp
assay endpoint: IC50 (nM)
Form entry: value (nM) — number only.

*Q* Enter recorded IC50 with UniProtKB P22001 for Oc1ccc(Cl)c(Cl)c1C1Cc2nnc(C3CCN(C4CCOCC4)CC3)n2C1 (centres unmarked) [Example 22] here.
*A* 13.6

*Q* Enter recorded IC50 with UniProtKB P22001 for CCc1nn(C)c2c1C[C@H](c1c(O)ccc(Cl)c1Cl)C2 [Example 115] here.
*A* 58.8

*Q* Enter recorded IC50 with UniProtKB P22001 for Oc1ccc(Cl)c(Cl)c1C1Cc2nnc(CN3CCC(O)C3)n2C1 (centres unmarked) [Example 19] here.
*A* 46.3

*Q* Enter recorded IC50 with UniProtKB P22001 for CCn1ncc2c1CC(c1c(O)ccc(Cl)c1Cl)C2 (single isomer, unassigned) [Example 118] here.
*A* 14.6

*Q* Enter recorded IC50 with UniProtKB P22001 for Oc1ccc(Cl)c(Cl)c1[C@@H]1Cc2nnc([C@@]34COCC3C4)n2C1 (some centres unmarked) [Example 72] here.
*A* 39.1
